Reported MIC by item:
system: Pseudomonas sp.; assay: Antibacterial activity against clinical isolate Pseudomonas sp. 5 measured after 24 hrs by broth microdilution method; format: functional
MEASUREMENT_LABEL: MIC (µg/mL)

• CCCCCCCCCCCC(=O)OCCC[N+](C)(C)Cc1cnc(C)c2c1COC(CCC)O2.[Cl-] (stereo not drawn) = 32
• CCCCCCCCCCCCCC(=O)NCC[N+](C)(C)Cc1nc(C)c2c(c1CO)COC(C)(C)O2.[Cl-] = 32
• CCCCCCCCCCCCCCCCCC(=O)NCCC[N+](C)(C)Cc1cnc(C)c2c1COC(C)(C)O2.[Cl-] = 64
• CCCCCCCCCCCC(=O)NCC[N+](C)(C)Cc1cnc(C)c2c1COC(C)(CCC)O2.[Cl-] (stereo not drawn) = 32
• CCCCCCCCCCCCCC(=O)OCC[N+](C)(C)Cc1cnc(C)c2c1COC(CCC)O2.[Cl-] (stereo not drawn) = 64
• CCCCCCCCCCCCCC(=O)NCC[N+](C)(C)Cc1cnc(C)c2c1COC(C)(CCC)O2.[Cl-] (stereo not drawn) = 32
• CCCCCCCCCCCCCC(=O)NCC[N+](C)(C)Cc1cnc(C)c2c1COC(C)(C)O2.[Cl-] = 64
